Test summary: soluble on expression in E. coli; label from the status in PepcDB or PDB records
Assay endpoint: soluble on expression in E. coli

MSLRPRMIDWLQARNIGVAVSQSYLAPVVDRAARQEQYRRMVQRSEPLISAYMGVRLPQPIDRIYVFDRAEWIEANLAAFQSLFAPLEELYDEVSARQGMVGILIGQLNSQLIGMQVGALIGFLARRVLGQYDLGLLSPDPDLRGALYFVEPNIARICAQLGLNGDDFRMWIALHETTHVFEFEAFPWVRAYFQDLLRQFIGRVNDQAAMLSVGIVRLIERLLQGQPIDHHWIELMLTPEQREIFTRMQALMSVVEGYSNHIMNAIGAQLLPSYPSIEARVRQRQLRRPLIEEAFNRITGMDLKLAQYQQGEAFINAVVAACGADFANRIWERPENLPTMDEIRAPHRWIARMSGEGHHHHHH soluble
MTEDLFGDLQDDTILAHLDNPAEDTSRFPALLAELNDLLRGELSRLGVDPAHSLEIVVAICKHLGGGQVYIPRGQALDSLIRDLRIWNDFNGRNVSELTTRYGVTFNTVYKAIRRMRRLKYRQYQPSLL soluble

====

Test summary: soluble on expression in E. coli; label from the status in PepcDB or PDB records
Assay endpoint: soluble on expression in E. coli

GPGSMDFVPTVAVIRANPVEGVRYAYTSTVSDNRYDSFVEDAVMQYSGNVNEADGSDRASPRFSGRSVVNLQRAILQCGDIRVSDKQDAEPVGVWRCLAGAILAACCFLRSYSTCPSESFDECGAEVCDAFVPAGVAMIIFSGVCDTRPLSFSEECPFSAAVTAATRLRTAVHVFGPAVVSSALGLRLQALANTTGGIWAPQFALSHVGYLMELAVRRNGQREMDSATNSRRQRELLVERYVVPPACLPQDPAQTGVASGENVSYLAWLCSACLATLVRHPHEEVGAIRMCPYCAASK not soluble
MSLGTSWQIGDVTIPNRVVVAPMAGVTNVAFRMICKAFGAGLVECEMISGQGIHYHNQRTLRMMAVNAQEHPMSIQIFGGTQETLVQAAQFVDQQTAADIIDINMGCPVNKVVNTDAGAKWLLDPQKVHDMVAAVVAAVKKPVTVKMRTGWDDHHIFAVDNALAAQRAGAAAVAMHGRTRKQMYQGQADWQILAEVAQHLTIPFMGNGDVRTPQDAQRMLNEVGADAVMIGRAVMGNPWLLQRINHYLATDELLAEPTPQEKTTIALEHLHKLCVAKGPVEGPRDFRNQVAYYLKGIPHTARTKVAITDATEEAVMHDLLVKFLERMTATIEGHHHHHH not soluble
MRQKTIREISVAWKEYKQPYVKQSTMAAYVLILENHILPNFGESDTLHEQAVQDFVLRKIENGLSVKSVKDILIVLKMVMKFGVKNEWMDYQEWDIKYPSSSTTKELEVLSVANHKKILNHIQNHFSFTGLGIYISLCTGLRIGEVCALKWSDINVSEGTITVNRTIERIYIIDGTKKHTELVINTPKTQNSCREIPMTKELLAMVKPLKKVVNEDFYVLTNDEYPTEPRTYRNYYGKLM not soluble

====

Test summary: soluble on expression in E. coli; label from the status in PepcDB or PDB records
Assay endpoint: soluble on expression in E. coli

As a guide, the following entries are already answered.
MDTIWDADLQSAALKAEHHRLKTERLSLGYEGKSVCDALDLAIPHGKFSVIVGPNGCGKSTLLKSLCRLLKPLAGQVLLDGQNIHQLPTKVVAKQLGLLPQSALTPEGIKVVDLVSRGRYPHQGLFRQWSRVDERAVEEAMRATHVHELAQHSVDQLSGGQRQRVWVAMALAQQTPYLLLDEPTTYLDIAHQIELLDLFWRLNRQQGHTLVAVLHDLNQACRYADHLIVLQEGKIVAQGDPHSLVTPALVKQVFGIDCVVMPDPISCTPLIIPYSLKRG not soluble
GSSLASQGQNLSTVLANLTPEQQKNVLGERLYNHIVAINPAAAAKVTGMLLEMDNGEILNLLDTPGLLDAKVQEALEVLNRHMNV soluble
GGVVLRVVTVLEEPFVMVSENVLGKPKKYQGFSIDVLDALSNYLGFNYEIYVAPDHKYGSPQEDGTWNGLVGELVFKRADIGISALTITPDRENVVDFTTRYMDYSVGVLLRRGTSIQSLQDLSKQTDIPYGTVLDSAVYQHVRMKGLNPFERDSMYSQMWRMINRSNGSENNVLESQAGIQKVKYGNYAFVWDAAVLEYVAINDPDCSFYTVGNTVADRGYGIALQHGSPYRDVFSQRILELQQSGDMDILKHKWWPKNGQCDL soluble
MSLARIIVVTSGKGGVGKTTSSAAIATGLAQKGKKTVVIDFDIGLRNLDLIMGCERRVVYDFVNVIQGDATLNQALIKDKRTENLYILPASQTRDKDALTREGVAKVLDDLKAMDFEFIVCDSPAGIETGALMALYFADEAIITTNPEVSSVRDSDRILGILASKSRRAENGEEPIKEHLLLTRYNPGRVSRGDMLSMEDVLEILRIKLVGVIPEDQSVLRASNQGEPVILDINADAGKAYADTVERLLGEERPFRFIEEEKKGFLKRLFGGEGHHHHHH soluble
MGSDKIHHHHHHMGDLSDIRVFLAVAQQRSFTAAARQLSMTPPTVTRSVSALEQSLGVQLLLRTTRQVSLTSAGAVYAARVEPLIRQFDQVRDDLREEQGDVAGLIRINAPLSLGQQLLPDIVSGFRAEHPQVSVSLSLTDRFIDIVSERFDLALRVSEAPRDRSTIWRKVCRVRRILVASPGYLAIFGTPETPDDLSRHGCIAYDEEAISETWELTNGGRTRKALAGKVLAANNGELIAKLVEDGQGLALLPHFIVGDALASARRAEAGPCRVGASGALADIVLSALRETADARCEILGLLRKICYPYAPAVKKRRTQVLFSRRKASFPAKGEHMLQEFDDALRHASFESDLNGLYAALLLSRSFGSSESRIRSLGRSLPDLSQQKSRFVWRRE not soluble

Query: What does the data say about its soluble on expression in E. coli? Entry: MGSDKIHHHHHHMSGKLTVITGPMYSGKTTELLSFVEIYKLGKKKVAVFKPKIDSRYHSTMIVSHSGNGVEAHVIERPEEMRKYIEEDTRGVFIDEVQFFNPSLFEVVKDLLDRGIDVFCAGLDLTHKQNPFETTALLLSLADTVIKKKAVCHRCGEYNATLTLKVAGGEEEIDVGGQEKYIAVCRDCYNTLKKRV
Reply: not soluble

Query: What does the data say about its soluble on expression in E. coli? Entry: HLDGRGAAMMEMAGLAQKGGAVQIHCRIAEKPSDISAIRVAVGEADGVIGGDLVVTAGAKTLGLMSQGRTGAVVNSHDIVTGEFTRNTDFRVPSDRLQVSLQARLQDRVAFLDATELARILMGDSIYSNMMVFGAAWQRGLIPLSAEAIQRAIELNGAAVAQNARAFALGRWAVL
Reply: not soluble

Query: What does the data say about its soluble on expression in E. coli? Entry: MSLIKVPCMQITNMHCSGQTVSLAAGDYHATIVTVGAGLAELTFQGCHLVIPHKPEEMPLAHLGKVLIPWPNRIANGCYRYQGQEYQLPINEHSSKAAIHGLLAWRDWQISELTATSVTLTAFLPPSYGYPFMLASQVVYSLNAHTGLSVEIASQNIGTVAAPYGVGIHPYLTCNLTSVDEYLFQLPANQVYAVDEHANPTTLHHVDELDLNFTQAKKIAATKIDHTFKTANDLWEMTITHPQQALSVSLCSDQLWVQVYSGEKLQRQGLAVEPMSCPPNAFNSGIDLLLLESGKPHRLFFNIYGQRKMGHHHHHHSH
Reply: not soluble
